method description: Dose that required to inhibit cell growth for cytotoxicity against HEp-2 cells in culture
Assay type: cell-based
test settings: human, HEp-2 cells; read-out: LD50 (the source's name)
Listed below: CC50 values for each entry.

compound | measurement units | CC50
C[C@]12CC[C@H]3[C@@H](CCC4=CC(=O)CC[C@@]43C)[C@@H]1CC[C@@H]2O | mg/L | 0.44
C=C1CC2(CCC3(C)[C@@H](CC[C@H]4[C@@H]5CCC(=O)C5(C)CC[C@@H]43)C2)OC1=O (stereo partly drawn) | mg/L | 0.58
CC(=O)[C@H]1CC[C@H]2[C@@H]3CC[C@H]4CC(=O)CC[C@]4(C)[C@H]3CC[C@]12C | mg/L | 0.84

----------
method description: Dose that required to inhibit cell growth for cytotoxicity against human nasopharyngeal carcinoma (KB) cells in culture
Format: cell-based
test settings: read-out: LD50 (the source's name)
Threshold-based label: GI50 under 0.8 µg/mL gives 1 (yes), GI50 not under 0.8 µg/mL gives 0 (no).

compound | label value
C=C1CC2C3CC[C@H]4CC(O)CCC4(C)C3CCC2(C)OC1=O (stereo not given in full) | 0 (no)
C=C1CC2(C)C3CCC4(C)C(O)CCC4C3CC[C@H]2OC1=O (stereo not given in full) | 1 (yes)
C[C@]12CC[C@H]3[C@@H](CCC4=CC(=O)CC[C@@]43C)[C@@H]1CC[C@@H]2O | 0 (no)
C=C1CC2(C)C3CCC4(C)C(OC(C)=O)CCC4C3CC[C@H]2OC1=O (stereo not given in full) | 1 (yes)
